These entries and their values trace back to the supplement of paper PMC10567573.

B1: TRIM39 (parent)
chain: YPCVLATEGFTSGRHYWEVEVGDK

- Variants of: B1
- Assay Info: protein stability index of a GFP-peptide fusion (GPS, HEK-293T) (PSI 1-6); higher = more stable;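 note: lentivirally expressed fusions sorted by FACS into six bins by GFP to DsRed ratio, PSI derived from sequencing read proportions per bin multiplied by bin number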
- Experimental Context: c terminus: a fixed tail appended
Assign class by protein stability index: not lower than 2 means Satisfied; lower than 2 means Not satisfied.

Previously resolved entries follow.
> print(dat)
   mutations            cat
1       D23H      Satisfied
2       H15V      Satisfied
3        A6E  Not satisfied

Quick check, protein stability index >= 2? `L5I`
Not satisfied

Quick check, protein stability index >= 2? `Y16V`
Satisfied

Quick check, protein stability index >= 2? `C3Q`
Not satisfied

Quick check, protein stability index >= 2? `W17N`
Satisfied

Quick check, protein stability index >= 2? `Y16G`
Satisfied

Quick check, protein stability index >= 2? `S12Y`
Not satisfied

Quick check, protein stability index >= 2? `Y16W`
Satisfied

Quick check, protein stability index >= 2? `K24T`
Satisfied

Quick check, protein stability index >= 2? `T7E`
Satisfied

Quick check, protein stability index >= 2? `F10A`
Not satisfied

Quick check, protein stability index >= 2? `A6G`
Satisfied

Quick check, protein stability index >= 2? `K24G`
Not satisfied

Quick check, protein stability index >= 2? `D23N`
Satisfied

Quick check, protein stability index >= 2? `D23L`
Satisfied

Quick check, protein stability index >= 2? `V21M`
Not satisfied

Quick check, protein stability index >= 2? `E8S`
Not satisfied

Quick check, protein stability index >= 2? `T11K`
Satisfied

Quick check, protein stability index >= 2? `T11Q`
Not satisfied

Quick check, protein stability index >= 2? `D23K`
Not satisfied

Quick check, protein stability index >= 2? `G22P`
Not satisfied
